# Test system: HOS
# assay: In vitro cytotoxic activity, Calcein AM assay, HOS
# Format: cell-based
# measurement context: 72 hours
Item-by-item account of IC50
measurement label: IC50

compound	test result
Nc1nc(NCc2ccccc2F)c2ncn([C@@H]3O[C@H](CO)[C@@H](O)[C@H]3O)c2n1	> 167 µM
CSc1nc(NCc2ccccc2F)c2ncn([C@@H]3O[C@H](CO)[C@@H](O)[C@H]3O)c2n1	> 167 µM
Nc1nc(NCc2ccc(F)cc2)c2ncn([C@@H]3O[C@H](CO)[C@@H](O)[C@H]3O)c2n1	43 µM
C/C(=C\CNc1ncnc2c1ncn2[C@@H]1O[C@H](CO)[C@@H](O)[C@H]1O)CO [zeatin riboside, reference compound]	> 167 µM
OC[C@H]1O[C@@H](n2cnc3c(NCc4ccc(F)cc4Cl)ncnc32)[C@H](O)[C@@H]1O	> 167 µM
COc1cccc(CNc2nc(N)nc3c2ncn3[C@@H]2O[C@H](CO)[C@@H](O)[C@H]2O)c1	> 167 µM

* * *

# Test system: Amaranthus caudatus cotyledon/hypocotyl explants
# assay: Amaranthus bioassay (betacyanin content)
# Format: in vivo
# measurement context: at concentration with highest activity
Mark each entry Criterion met if its Activity (%) [10^−5 mol · l^−1 BAP = 100%] sits below 70%, and Criterion not met for all others.

compound	label
COc1cccc(CNc2ncnc3c2ncn3[C@@H]2O[C@H](CO)[C@@H](O)[C@H]2O)c1O [2-hydroxy-3-methoxybenzylamino]	Criterion met
O=[N+]([O-])c1ccc(CNc2ncnc3c2ncn3[C@@H]2O[C@H](CO)[C@@H](O)[C@H]2O)cc1 [4-nitrobenzylamino, 6-(4-nitrobenzylamino)purine riboside]	Criterion met
O=[N+]([O-])c1cccc(CNc2ncnc3c2ncn3[C@@H]2O[C@H](CO)[C@@H](O)[C@H]2O)c1 [3-nitrobenzylamino, 6-(3-nitrobenzylamino)purine riboside]	Criterion met
Cc1ccc(CNc2ncnc3c2ncn3[C@@H]2O[C@H](CO)[C@@H](O)[C@H]2O)cc1 [4-methylbenzylamino, 6-(4-methylbenzylamino)purine riboside]	Criterion met
OC[C@H]1O[C@@H](n2cnc3c(NCc4ccc(F)cc4Cl)ncnc32)[C@H](O)[C@@H]1O	Criterion not met
OC[C@H]1O[C@@H](n2cnc3c(NCc4ccc(F)c(Cl)c4)ncnc32)[C@H](O)[C@@H]1O	Criterion not met
OC[C@H]1O[C@@H](n2cnc3c(NCc4ccc(F)cc4F)ncnc32)[C@H](O)[C@@H]1O	Criterion not met
COc1cccc(CNc2ncnc3c2ncn3[C@@H]2O[C@H](CO)[C@@H](O)[C@H]2O)c1 [3-methoxybenzylamino, 6-(3-methoxybenzylamino)purine riboside]	Criterion not met
OC[C@H]1O[C@@H](n2cnc3c(NCc4ccc(Br)cc4)ncnc32)[C@H](O)[C@@H]1O [4-bromobenzylamino, 6-(4-bromobenzylamino)purine riboside]	Criterion met
OC[C@H]1O[C@@H](n2cnc3c(NCc4cccc(F)c4)ncnc32)[C@H](O)[C@@H]1O [3-fluorobenzylamino, 6-(3-fluorobenzylamino)purine riboside]	Criterion not met
OC[C@H]1O[C@@H](n2cnc3c(NCc4cccc(Cl)c4)ncnc32)[C@H](O)[C@@H]1O [3-chlorobenzylamino, 6-(3-chlorobenzylamino)purine riboside]	Criterion not met

* * *

Item-by-item account of IC50
# Tested on: human erythroleukaemia K562
# assay: In vitro cytotoxic activity, Calcein AM assay, K-562
# Format: cell-based
# measurement context: 72 hours, read-out: IC 50 K-562

molecule	display unit	result qualifier	IC50
COc1ccc(CNc2ncnc3c2ncn3[C@@H]2O[C@H](CO)[C@@H](O)[C@H]2O)c(OC)c1 [2,4-dimethoxybenzylamino]	µM	>	167
OC[C@H]1O[C@@H](n2cnc3c(NCc4cccc(F)c4)ncnc32)[C@H](O)[C@@H]1O [3-fluorobenzylamino, 6-(3-fluorobenzylamino)purine riboside]	µM	=	7
Nc1nc(NCc2ccccc2F)c2ncn([C@@H]3O[C@H](CO)[C@@H](O)[C@H]3O)c2n1 [R2 = NH2,2-fluorobenzylamino]	µM	=	45
OC[C@H]1O[C@@H](n2cnc3c(NCc4cccc(Br)c4)ncnc32)[C@H](O)[C@@H]1O [3-bromobenzylamino, 6-(3-bromobenzylamino)purine riboside]	µM	=	19.7
OC[C@H]1O[C@@H](n2cnc3c(NCc4ccccc4Cl)ncnc32)[C@H](O)[C@@H]1O [2-chlorobenzylamino, 6-(2-chlorobenzylamino)purine riboside]	µM	=	64
C/C(=C\CNc1ncnc2c1ncn2[C@@H]1O[C@H](CO)[C@@H](O)[C@H]1O)CO [zeatin riboside, reference compound]	µM	>	167

All values here come from patent US8119614B2.
